Source of measurements: PubChem BioAssay AID367

Molecular target: Gag-Pol polyprotein (Human immunodeficiency virus type 2 subtype A (isolate ROD))
Assay: Ribonuclease H inhibitors of HIV-2 reverse transcriptase, biochemical dose response (AID 367)
Settings: HIV-2 RNase H, FRET RNA/DNA substrate cleavage
Calls of active or inactive are those of the source. How the calls were made is not given here.
Labels: active, inactive

compound	category
CC(C)=CCC[C@]1(C)[C@@H](CC=C(C)C)C[C@@]2(CC=C(C)C)C(=O)/C(=C(\O)c3ccc(O)c(O)c3)C(=O)[C@]1(CC=C(C)C)C2=O	active
O=C1c2ccccc2C(=O)c2c(O)c(O)cc(O)c21	active
CCCCCCCCCCCCCCCC(=O)OCC1OC(n2ccc(N)nc2=O)C(O)C1O (stereo not given)	inactive
Cc1cc(-c2ccco2)c(C#N)c(SCC(=O)c2ccc(O)c(O)c2)n1	active
COc1ccc(-c2c(C#N)c(N)nc(SCC(=O)c3ccc(O)c(O)c3)c2C#N)cc1	active
COc1cc([C@@H]2c3cc4c(cc3C[C@H]3COC(=O)[C@@H]32)OCO4)cc(OC)c1O	inactive
Cc1ccc(S(=O)(=O)/N=C2\C=C(Sc3ncn[nH]3)C(=O)c3ccccc32)cc1	active
NC(=O)c1c(NC(=O)COc2ccccc2)sc2c1CCCCC2	active
Cc1ccc(C2COc3cc(O)c(O)cc3C2)cc1 (stereo not given)	active
O=C1/C(=C\c2ccc(O)c(O)c2)SC(=S)N1c1cccc(Cl)c1	active

----------
Biological target: Gag-Pol polyprotein (Human immunodeficiency virus type 2 subtype A (isolate ROD))
Assay: Ribonuclease H inhibitors of HIV-2 reverse transcriptase, biochemical dose response (AID 367)
Details: HIV-2 RNase H, FRET RNA/DNA substrate cleavage
Activity calls are given as the source filed them. No rule for the calls is given here.
Labels: 1.0 for active, 0.0 for inactive

compound	category
CN(C)CN1CSC(=S)N(CN(C)C)C1	1.0
CCC(=O)Nc1sc2c(c1C(=O)Nc1ccc(OC)cc1)CCCCC2	0.0
Nc1ccc(S(=O)(=O)O)c2cccc(O)c12	0.0
C=CC(C)(C)C12CC3C(=O)N/C(=C\c4cnc[nH]4)C(=O)N3C1Nc1ccccc12 (stereo not drawn)	0.0
O=C1O/C(=C(/C(=O)O)c2ccc(O)cc2)C(O)=C1c1cc2c3c(c(O)cc(C4=C(O)/C(=C(\C(=O)O)c5ccc(O)cc5)OC4=O)c3c1)OC2=O	1.0
COc1ccc(C2COc3cc(O)c(O)cc3C2)cc1 (stereo not drawn)	1.0
CCc1c(O)c2c(c(O)c1C(C)=O)C(=O)c1c(cc(O)c(C(=O)O)c1C(=O)O)C2=O	1.0
CC1=C(C)CC(C(=O)Nc2ccc(N3C(=O)c4ccccc4C3=O)cc2)C(C(=O)O)C1 (stereo not drawn)	0.0

----------
Target: Gag-Pol polyprotein (Human immunodeficiency virus type 2 subtype A (isolate ROD))
Assay: Ribonuclease H inhibitors of HIV-2 reverse transcriptase, biochemical dose response (AID 367)
Conditions: HIV-2 RNase H, FRET RNA/DNA substrate cleavage
Activity calls are given as the source filed them. How the calls were made is not given here.
Labels: active, inactive

compound	category
Cc1sc(NC(=O)c2ccc3c(c2)OCO3)c(C(N)=O)c1C	active
Nc1ccc(N=Nc2ccc(-c3ccc(O)cc3)cc2)c2ccc(S(=O)(=O)O)cc12	active
COc1cccc(-c2nc3cc(NC(=O)/C=C\c4ccccc4)ccc3o2)c1	active
O=C(N/N=C/c1ccccc1Cl)c1cc(O)c(O)c(O)c1	active
COc1cc(C=O)ccc1OCCCOc1cccc(Oc2ccccc2)c1	inactive
Nc1c(S(=O)(=O)O)cc(Nc2cccc(S(N)(=O)=O)c2)c2c1C(=O)c1ccccc1C2=O	active
CCOc1ccc(C(=O)Nc2ccc3c(c2)C(=O)c2ccccc2C3=O)cc1	active
Cc1ccc(C(=O)Nc2sc(C)c(C)c2C(N)=O)cc1	active
O=C1C=C/C(=N\S(=O)(=O)c2cc(Cl)ccc2Cl)C=C1Cl	active
Cc1ccc(C(=O)NC(=S)Nc2ccc(-c3nc4ccccc4s3)cc2)cc1[N+](=O)[O-]	inactive
CCOc1ccc(N2C(=O)/C(=C/c3ccc(I)o3)C(=O)NC2=S)cc1	active
O=C(CSc1nc2ccccc2s1)c1sc2sc3ccccc3[n+]2c1[O-]	active
CCCc1cc(=O)oc2c3c(c4c(c12)OC(C)(C)C=C4)O[C@H](C)[C@@H](C)[C@H]3OC	inactive
O=C1/C(=C/c2ccc(O)c(O)c2)SC(=S)N1c1ccc(O)cc1	active
O=C1C=CC(=O)C(c2cccc(Cl)c2)=C1	active
CC(C)=CCC(O)C1=CC(=O)c2c(O)ccc(O)c2C1=O (stereo not given)	inactive
O=C1Nc2ccc(I)cc2C1(O)N1CCOCC1 (stereo not given)	active
C=CC1=C(C)C2=NC1=CC1=NC(=CC3=C(C)C4=C(O)C(C(=O)OC)C(=C5NC(=C2)C(C)C5CCC(=O)OC/C=C(\C)CCCC(C)CCCC(C)CCCC(C)C)C4=N3)C(CC)=C1C (stereo not given)	inactive
O=C1C=CC(=NS(=O)(=O)c2ccc(Cl)c([N+](=O)[O-])c2)C=C1	active
C=C(CCC(C(=O)O)C1CCC2(C)C3=C(CCC12C)C1(C)CCC(O)C(C)(C)C1CC3)C(C)C (stereo not given)	inactive
